Molecular target: T1, human programmed cell death protein 1 (hPD-1) C93S (aa 24-167) (Homo sapiens, UniProt Q15116, C93S)
T1 construct: made as a fusion with a TEV site and human Fc; the Fc was cut off with TEV protease; source: Expi293F, purified (Protein A, TEV cleavage of Fc, SEC; monomer fractions); not shown: Fc (human), C-terminal, cleaved
T1 sequence (Q15116 24-167 C93S): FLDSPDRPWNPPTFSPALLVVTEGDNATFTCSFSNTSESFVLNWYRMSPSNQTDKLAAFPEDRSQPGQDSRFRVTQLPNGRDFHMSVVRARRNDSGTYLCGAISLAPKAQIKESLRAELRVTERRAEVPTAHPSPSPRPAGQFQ
Test: SPR; Carterra LSA; Fab from the ammonium sulfate precipitate of the culture supernatant immobilised on a NiHC200M chip; hPD-1 (1-1024 nM) or mPD-1-Fc (4-1024 nM) as analyte, fourfold dilution series, no regeneration; HBS-EP pH 7.4, 25 °C; medians over the spots of a construct, KD = koff/kon
Conditions: one partner purified
Reported pKd values for the following binders.
# pKd is unitless: minus log10 of the molar concentration; print number only

[
  {
    "BINDER": "toripalimab Fab H.V114Y (Fab, V domains shown, heavy chain of Sm3 with this change; numbers count from the chain's first residue; as the light chain of Sm3; source: Brevibacillus, culture supernatant (ammonium sulfate precipitate); not shown: 6xHis, C-terminal, kept; 6xHN, C-terminal, kept) VH: QGQLVQSGAEVKKPGASVKVSCKASGYTFTDYEMHWVRQAPIHGLEWIGVIESETGGTAYNQKFKGRVTITADKSTSTAYMELSSLRSEDTAVYYCAREGITTVATTYYWYFDYWGQGTTVTVSS VL: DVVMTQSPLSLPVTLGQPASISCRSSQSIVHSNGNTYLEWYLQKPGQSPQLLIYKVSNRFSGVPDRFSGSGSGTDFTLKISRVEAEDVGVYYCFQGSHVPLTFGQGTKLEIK",
    "TEST_VALUE": 8.91
  }
]

For the binder toripalimab Fab L.P100I (Fab, V domains shown, as the heavy chain of Sm3; light chain of Sm3 with this change; numbers count from the chain's first residue; source: Brevibacillus, culture supernatant (ammonium sulfate precipitate); not shown: 6xHis, C-terminal, kept; 6xHN, C-terminal, kept) VH: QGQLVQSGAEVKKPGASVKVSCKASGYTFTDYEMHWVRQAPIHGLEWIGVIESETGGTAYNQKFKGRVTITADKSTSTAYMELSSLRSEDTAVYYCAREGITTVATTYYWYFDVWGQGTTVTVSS VL: DVVMTQSPLSLPVTLGQPASISCRSSQSIVHSNGNTYLEWYLQKPGQSPQLLIYKVSNRFSGVPDRFSGSGSGTDFTLKISRVEAEDVGVYYCFQGSHVILTFGQGTKLEIK , what pKd is on record?
7.91

Try this binder too: toripalimab Fab L.I29Y (Fab, V domains shown, as the heavy chain of Sm3; light chain of Sm3 with this change; numbers count from the chain's first residue; source: Brevibacillus, culture supernatant (ammonium sulfate precipitate); not shown: 6xHis, C-terminal, kept; 6xHN, C-terminal, kept) VH: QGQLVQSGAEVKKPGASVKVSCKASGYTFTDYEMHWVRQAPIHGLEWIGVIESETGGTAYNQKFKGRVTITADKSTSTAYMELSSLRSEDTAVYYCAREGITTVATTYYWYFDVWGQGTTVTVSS VL: DVVMTQSPLSLPVTLGQPASISCRSSQSYVHSNGNTYLEWYLQKPGQSPQLLIYKVSNRFSGVPDRFSGSGSGTDFTLKISRVEAEDVGVYYCFQGSHVPLTFGQGTKLEIK
7.52

Try this binder too: toripalimab Fab L.V99W (Fab, V domains shown, as the heavy chain of Sm3; light chain of Sm3 with this change; numbers count from the chain's first residue; source: Brevibacillus, culture supernatant (ammonium sulfate precipitate); not shown: 6xHis, C-terminal, kept; 6xHN, C-terminal, kept) VH: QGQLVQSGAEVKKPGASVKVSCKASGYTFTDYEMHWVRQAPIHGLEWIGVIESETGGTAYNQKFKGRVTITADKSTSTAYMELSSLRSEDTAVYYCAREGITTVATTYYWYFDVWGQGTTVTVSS VL: DVVMTQSPLSLPVTLGQPASISCRSSQSIVHSNGNTYLEWYLQKPGQSPQLLIYKVSNRFSGVPDRFSGSGSGTDFTLKISRVEAEDVGVYYCFQGSHWPLTFGQGTKLEIK
7.34

Try this binder too: toripalimab Fab H.F64Y (Fab, V domains shown, heavy chain of Sm3 with this change; numbers count from the chain's first residue; as the light chain of Sm3; source: Brevibacillus, culture supernatant (ammonium sulfate precipitate); not shown: 6xHis, C-terminal, kept; 6xHN, C-terminal, kept) VH: QGQLVQSGAEVKKPGASVKVSCKASGYTFTDYEMHWVRQAPIHGLEWIGVIESETGGTAYNQKYKGRVTITADKSTSTAYMELSSLRSEDTAVYYCAREGITTVATTYYWYFDVWGQGTTVTVSS VL: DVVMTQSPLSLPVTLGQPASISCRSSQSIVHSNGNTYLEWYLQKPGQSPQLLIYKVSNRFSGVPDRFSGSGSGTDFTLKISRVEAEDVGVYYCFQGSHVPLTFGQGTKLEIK
8.93

Try this binder too: toripalimab Fab L.P100F (Fab, V domains shown, as the heavy chain of Sm3; light chain of Sm3 with this change; numbers count from the chain's first residue; source: Brevibacillus, culture supernatant (ammonium sulfate precipitate); not shown: 6xHis, C-terminal, kept; 6xHN, C-terminal, kept) VH: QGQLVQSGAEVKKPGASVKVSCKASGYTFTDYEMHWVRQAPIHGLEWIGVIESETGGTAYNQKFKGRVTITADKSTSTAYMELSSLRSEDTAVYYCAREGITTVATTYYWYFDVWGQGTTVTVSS VL: DVVMTQSPLSLPVTLGQPASISCRSSQSIVHSNGNTYLEWYLQKPGQSPQLLIYKVSNRFSGVPDRFSGSGSGTDFTLKISRVEAEDVGVYYCFQGSHVFLTFGQGTKLEIK
8.05

All values here come from paper PMC10663500.
